I'd be grateful if you could share measured pIC50 for these entries.
Test system: differentiated P19 neurons
experiment: Drug screening using differentiated P19 cell assay (neuroprotection against glutamate/glycine)
Type: cell-based, murine
experimental-conditions: Mus musculus, Neuron; dose response 0.005-3 μM; 3 mM glutamate + 1 mM glycine; >1 = no maximum within highest dose (3 μM)
Friendly reminder that pIC50 comes from taking -log10 of the concentration in mol/L.

Find pIC50 (differentiated P19 neurons) for the entry CCOc1cccc(-c2ccc(Nc3cc(OC)c(OC)c(OC)c3)nc2)c1
7.33

Find pIC50 (differentiated P19 neurons) for the entry CCCCCOc1ccc(Nc2ccc(-c3ccc(CCC(=O)O)cc3)cn2)cc1
6.64

Find pIC50 (differentiated P19 neurons) for the entry COc1cc(Nc2cccc(-c3ccc(C)c(C)c3)n2)cc(OC)c1OC
7.10

Find pIC50 (differentiated P19 neurons) for the entry CCn1c2ccccc2c2cc(Nc3cccc(-c4cccc(N(C)C)c4)n3)ccc21
7.05

Find pIC50 (differentiated P19 neurons) for the entry COc1cc(Nc2cccc(-c3ccccc3Oc3ccccc3)n2)cc(OC)c1OC
6.64

Find pIC50 (differentiated P19 neurons) for the entry COc1cc(Nc2cccc(/C=C/c3ccccc3)n2)cc(OC)c1OC
7.52

Find pIC50 (differentiated P19 neurons) for the entry COc1ccc(Nc2cccc(-c3ccccc3)n2)cc1
6.19

Find pIC50 (differentiated P19 neurons) for the entry CCCCCOc1ccc(Nc2ccc(-c3ccc(N(C)C)cc3)cn2)cc1
6.62

Find pIC50 (differentiated P19 neurons) for the entry CCCCCOc1ccc(Nc2ccc(-c3ccccc3OC)cn2)cc1
6.66

Find pIC50 (differentiated P19 neurons) for the entry c1ccc2cc(-c3ccc(Nc4ccc(N5CCOCC5)cc4)nc3)ccc2c1
7.08

Find pIC50 (differentiated P19 neurons) for the entry c1ccc2sc(-c3ccc(Nc4ccc(N5CCOCC5)cc4)nc3)cc2c1
7.05

Find pIC50 (differentiated P19 neurons) for the entry FC(F)(F)c1cc(-c2ccc(Nc3ccc(N4CCOCC4)cc3)nc2)cc(C(F)(F)F)c1
6.68

Find pIC50 (differentiated P19 neurons) for the entry COc1ccc(Nc2cccc(-c3ccc(CNC(=O)OC(C)(C)C)cc3)n2)cc1
6.03

Find pIC50 (differentiated P19 neurons) for the entry COc1cc(Nc2cccc(-c3cccc(OC(F)(F)F)c3)n2)cc(OC)c1OC
7.30

Find pIC50 (differentiated P19 neurons) for the entry COc1cc(Nc2cccc(-c3ccc4c(c3)OCO4)n2)cc(OC)c1OC
7.30

Find pIC50 (differentiated P19 neurons) for the entry CCOc1cccc(-c2cccc(Nc3cc(OC)c(OC)c(OC)c3)n2)c1
6.85

Find pIC50 (differentiated P19 neurons) for the entry COc1ccc(Nc2ccc(-c3ccc(N(C)C)cc3)cn2)cc1
6.70

Find pIC50 (differentiated P19 neurons) for the entry COc1cc(Nc2cccc(-c3ccc4ccccc4c3)n2)cc(OC)c1OC
6.68
